# System: MS2 coat protein
# experiment_summary: apparent KD of MS2 coat protein; higher = weaker reporter binding
# settings: Eterna round: R107; input ligand: arginine 13.2 mM
Mark TRUE for reported apparent KD of MS2 coat protein of 40 nM or greater; mark FALSE for anything smaller.

Hello, I need to know if AUCGGCAGAAAAGAUACCAGAGUAAUACACAACAUGAGGAUCACCCAUGUACGGACAAUCCUCCCUUGGCAGCUUGUAACAGUAU [theeternabot_sameState_MS2_Theo_B_32] has measured apparent KD of MS2 coat protein not below 40 nM. Thanks! FALSE

Hello, I need to know if UGAAAGUAGGGAAGGAGCGCUACAACAUGAGGAUCACCCAUGUUAUGAGGAUCACCCAUGUGGCAGGUAGGUCGCCCAAAACAUG [Same State Arginine B] has measured apparent KD of MS2 coat protein not below 40 nM. Thanks! TRUE

Hello, I need to know if `UGUAUGGACUGAAGGAGCGGAAAAUAACCAUGAGGAUCACCCAUGGAAUAGGCGAAAGCCAUCCAGGUAGGUCGCAGUCCAUACU` has measured apparent KD of MS2 coat protein not below 40 nM. Thanks! FALSE

Hello, I need to know if AGAGUCAGACAAAAGUCUGGCUCAGCCGAAGGAGCGUCCGAAAGGACAGGUAGGUCGCGGUUACUUGAGGAUCACCCAAGUUCCU [ArgAS 26 #OpenEnded #AlternativeMS2] has measured apparent KD of MS2 coat protein not below 40 nM. Thanks! TRUE

Hello, I need to know if UGUUAUUUCCGAAGGAGCGGGAUACAUGAGGAUCACCCAUGUACAUGAGGAUCAACAUGAACCCAGGUAGGUCGCGGAUUUUGUC [Exclusion Arginine B 3] has measured apparent KD of MS2 coat protein not below 40 nM. Thanks! FALSE

Hello, I need to know if UUGUGGCGCUCGGCCGCCACUCCGACAUGAGGAUCACCCAUGUUCUACAUGAGGAUCACCCAUGUGAGGACCGGGAGACACAACC [Exclusion Tryptophan B GF12] has measured apparent KD of MS2 coat protein not below 40 nM. Thanks! TRUE

* * *

# Tested on: MS2 coat protein
# experiment_summary: apparent KD of MS2 coat protein; higher = weaker reporter binding
# settings: Eterna round: R107; input ligand: theophylline 2 mM
For each record, write down the corresponding apparent KD of MS2 coat protein.
Numeric only. Scale: nM

What value of apparent KD of MS2 coat protein on MS2 coat protein does AACCACAUGAGGAUCACCCAUGUGACCGCUCGAGGACCGGUACGGCCGCCACUCGUGGAGGGACUUAUGCGUUAUCCGGGUAAAU [theeternabot_sameState_MS2_Trp_A_29] have? 20.9

What value of apparent KD of MS2 coat protein on MS2 coat protein does UUGUUGUUUGGAAGGAGCGUGUAUGAUUAAGAACAUGAGGAUCACCCAUGUUGUAGGAUAGCACAGGUAGGUCGCCGGGUGGUGG [11.W] have? 23.5

What value of apparent KD of MS2 coat protein on MS2 coat protein does UUUGAGAUAACAGAUACCAGCGUGUUAUAAAACAUGAGGAUCACCCAUGUAGUGAUCAAGCGCCCUUGGCAGCUGGUGUUUUAGG [7.H] have? 469

* * *

For each record, write down the corresponding apparent KD of K4 kissing-loop reporter.
# Test system: K4 kissing-loop RNA reporter;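 note: bound reporter read as fluorescence of individual clusters on recovered sequencing chips by microscopy, with normalized cluster intensities fitted with a binding model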
# experiment_summary: apparent KD of K4 kissing-loop reporter; higher = weaker reporter binding
# settings: Eterna round: R107; input ligand: FMN 200 uM
Numeric only. Scale: nM

Data request, read-out apparent KD of K4 kissing-loop reporter, for UCCACGCUUCGAGGAUAUCGGAUUAGAGUGAUGUUCUAAAGACGCCCAGUGAUGUUGGAUGCGAUACGAGAAGGCGGUGGCGUGU [Same State FMN B GF6] 236

Data request, read-out apparent KD of K4 kissing-loop reporter, for `GCCUAGGCUCGAAAGAGCCUAGGCUUGUCUCAGGAUAUCUGGAAACAGAGAAGGGAGCUACUAGUGAUGUUAGGAAUUCCCUAAG` 149

Data request, read-out apparent KD of K4 kissing-loop reporter, for AUUUAAUUAACUGAUACCAGACUUUAAGUAAUUAUUAAAACUAGUGAUGUUAGUUUAUCUGUCCCUUGGCAGCAGUUUCUACUUA [JR_Nu_ExcTheophyB_Sub020] 144

Data request, read-out apparent KD of K4 kissing-loop reporter, for AAGGGCGGAACAACCUCGCCGGAUAGAGAUACCAGCCCAGCAAUGGGCCCUUGGCAGCUCACUGACCUCAGUGAUGUUGAGGUUC [Laar] 243

Data request, read-out apparent KD of K4 kissing-loop reporter, for `GCAUGGAUCGCAGGAUAUAGAUCCGUGAGUGAAUUCUUGCCAGUGAGGAGUGAUGUUCCUCAUGGGCUAGAAGGGCGAUCCAUGC` 140

Data request, read-out apparent KD of K4 kissing-loop reporter, for UCUUUUGGCAUGGAUAGAAUGCCGACCGAUACCAGCAAAGUAGGAUGCCCUUGGCAGCGGAGUGAUGUUCCAUUGUCGCGGUUUG [theeternabot_exclusion_KL_Theo_A_48] 82.7

Data request, read-out apparent KD of K4 kissing-loop reporter, for GUCUGUGUACUAGGAUAUGGUUGCAGACAGUCAGGUCGCCUUUUCGGCGGCCAGUGAUGUUGGUGGCCAGAAGGAGUACGUGAAG [Biririge] 384

Data request, read-out apparent KD of K4 kissing-loop reporter, for AAUUUUAAUAAUAAAUAAUAAAUAAAUGAUACCAGUAUUUUUUUUUACCCUUGGCAGCGUAUAUAAGGGCAGUGAUGUUGUCAAA [whbob_SS_Theo_A_w58] 205

Data request, read-out apparent KD of K4 kissing-loop reporter, for AACCUACGAUCACAAUAGUGAUUGUAGGACUAGGAUAUGCUGAAAAGCAGAAGGAGUGAUGUUCCACUCAUGAAUAACAUGAGAA [FmnAX 4 #OpenEnded #K4Late #CoaxialStacking] 594

Data request, read-out apparent KD of K4 kissing-loop reporter, for UCUGUUGUAUAUGAUACCAGCAGUGAGAGAUGAGAAGUAUAGUGAUGUUAUAUGAGAGAAUGCCCUUGGCAGCGUGUGCGUGUGG [SSTheophylB.aC] 105

Data request, read-out apparent KD of K4 kissing-loop reporter, for UGACAUUGCUCAGAUACCAGACAUGAGCAUCAGCCAUGUGCCAAAACGUACUAAAUAAAUGUCCCUUGGCAGCUGAGCAAUGUCU [TheoBX 13] 65

Data request, read-out apparent KD of K4 kissing-loop reporter, for GAAUGAUAGUAAGGAUAUAGAUAAUCCUUAUAUAUAUCGAGUGAUGUUCGAUGUGGCAAGAUACAUCUAGAAGGUACUGUAAGGU [Same State FMN B GF 16] 309

Data request, read-out apparent KD of K4 kissing-loop reporter, for CUCGUGGGUUUGAGAGGGCUUGUGGGAAGUGAGGAUAUUUAGGGAGAAAGAAGGCACUAUAAAAUAUAGUGAUGUUAUAUAAGGG [SSFMNA.M] 494

Data request, read-out apparent KD of K4 kissing-loop reporter, for AGGAGCGUGCGAUGCAAAUCGCACGCUCCUCGAGGACCGGUACGGCCGCCACUCGCUCGCGCCGAGUGAUGUUCGGCCGGCGAAC [#2 Same State - Tryptophan A Attempt #10 (HarryS)] 266

Data request, read-out apparent KD of K4 kissing-loop reporter, for AACGUUUUGAGAAGGAGCGCGUUAAGCAGUGAUGUUGCUUUAUUUUAUCAAAUACAUAUAUCGCAGGUAGGUCGCUCAAUACGUA [JR_Nu_SSArginiB_Sub026] 304

Data request, read-out apparent KD of K4 kissing-loop reporter, for ACGUCCGGAUUGAUCGUGGGCAUGGUCGAUACCAGUAGUUUAAUCUACCCUUGGCAGCGACAUGAGUGAUGUUCAUGUGCGGUGA [#14 K4 Theophylline A Exclusion] 194

Data request, read-out apparent KD of K4 kissing-loop reporter, for UGUCUACCGGGAAGGAGCGUGAAUGAUAAUGGAUAUAGUGAUGUUAUAUAUACGAACGAAUCGCAGGUAGGUCGCCCGGAUCCCU [SSArgB.W] 431

Data request, read-out apparent KD of K4 kissing-loop reporter, for AGAUUCGACACGGCCGCCACUCGUGGUGGAUUACCUAGUGUCGAAGUUGAGUGAUGUUCAAGUACGAGGACCGGGUGUUGAGUCU [KL-XTryp-B8 #analogue] 420

Data request, read-out apparent KD of K4 kissing-loop reporter, for AAUUUAUUAACUGAUACCAGACUUUAUUAUUUGUAAAUUACUAGUGAUGUUAGUGUUUCUGUCCCUUGGCAGCAGUAUUUAUUAA [JR_SSTheophyB_Sub024] 78.8

Data request, read-out apparent KD of K4 kissing-loop reporter, for UUGGCUGGACGGGAUACCAGCCAAAUCGUGGGCUUGGGAUGUCUAAGAGCCAGUGAUGUUGGCCCUUGGCAGCCCUCCCAGCUUG [Xerirala] 104

Data request, read-out apparent KD of K4 kissing-loop reporter, for GUAUCGCUAGGAGGAUAUUUCAUAUAAUAUAUAAAUGGAUAUACGGAGUGAUGUUCCGAUUUACGGAAAGAAGGCCUAGUGAUAC [FMN B 18] 134

Data request, read-out apparent KD of K4 kissing-loop reporter, for GAUUUAGAGGCGGCCGCCACUAGUGAUGUUAGUGAUGUUUGAUACUGAAUAUAUCUGCGUUUAGAUAGGACCGGGCCAGAUGGUG [ddcmullin] 261

Data request, read-out apparent KD of K4 kissing-loop reporter, for GUAUAUCGAGUGAUGUUCGAAUGCUCCGAAGGAGCGCGGAUAAUCGCAGGUAGGUCGCGGAGCAGUUGCUGAGGAAGCUCAGUAU [Arg A SS t11] 162

Data request, read-out apparent KD of K4 kissing-loop reporter, for UCGACUGUGUCGGCCGCCACUGGUAUAAACGGACUAUAACGACAUGAGUGAUGUUCAUGUUCGUCUAGGACCGGGACACAAUGUA [Tryp B Ex t3] 102
